Readings of MIC for the listed molecules
System: Enterobacter cloacae
Test: Antimicrobial activity against Enterobacter cloacae expressing beta-lactamase KPC-2 and SHV-12 obtained from criticall ill liver transplant recipient by broth microdilution method
Assay type: functional

Example cases with answers are listed next.
CO[C@@]1(NC(=O)Cc2cccs2)C(=O)N2C(C(=O)O)=C(COC(N)=O)CS[C@@H]21 = > 32 µg/mL
CO/N=C(\C(=O)N[C@@H]1C(=O)N2C(C(=O)O)=C(CSc3nc(=O)c(O)nn3C)CS[C@H]12)c1csc(N)n1 = > 32 µg/mL

Please turn your attention to the following entry.
Supply recorded MIC for C[C@@H](O)[C@H]1C(=O)N2C(C(=O)O)=C(SCCNC=N)C[C@H]12 [IMIPENEM ANHYDROUS] here.
> 4 µg/mL

* * *

Listed here: items and their measured MIC.
Test system: Pseudomonas putida
Assay: Antimicrobial activity against Pseudomonas putida expressing beta-lactamase KPC-2 and SHV-12 obtained from criticall ill liver transplant recipient by broth microdilution method
Format: functional

Use these answered entries as a reference point.
CC(C)(O/N=C(\C(=O)N[C@@H]1C(=O)N2C(C(=O)[O-])=C(C[n+]3ccccc3)CS[C@H]12)c1csc(N)n1)C(=O)O [CEFTAZIDIME] = > 32 µg/mL
CO/N=C(\C(=O)N[C@@H]1C(=O)N2C(C(=O)O)=C(CSc3nc(=O)c(O)nn3C)CS[C@H]12)c1csc(N)n1 [CEFTRIAXONE] = > 32 µg/mL
NC[C@H]1O[C@H](O[C@H]2[C@H](O)[C@@H](O[C@H]3O[C@H](CO)[C@@H](O)[C@H](N)[C@H]3O)[C@H](N)C[C@@H]2N)[C@H](N)C[C@@H]1O [TOBRAMYCIN] = > 8 µg/mL

Please look at this compound and report its MIC: C[C@@H](O)[C@H]1C(=O)N2C(C(=O)O)=C(S[C@@H]3CN[C@H](C(=O)N(C)C)C3)[C@H](C)[C@H]12 [MEROPENEM]
> 4 µg/mL
